Origin of the recorded values: patent US11420970B1

Test system: cellular H3K36me2 level in multiple myeloma cell line KMS11 (t(4;14)+)
Assay: H3K36me2 cellular ELISA assay in KMS11-Par line
Assay type: cell-based
Conditions: Homo sapiens, KMS-11; KMS11-Par line, ELISA, 72 hours; read-out: H3K36me2 ELISA in KMS11-Par
Below: a set of entries, each annotated with reported IC50.
readout: IC50 (nM)

compound	readout.number
C[C@H](F)c1cccc([C@@]2(N)CCCN(c3cnc(-c4ccc(F)cc4)cc3Cn3cnc4c(N)ncnc43)C2)n1	455
Nc1ncnc2c1ncn2Cc1cc(-c2ccc(F)c(F)c2)ncc1N1CCC[C@](N)(c2ccccn2)C1	41
COc1cc(F)nc([C@@]2(N)CCCN(c3cnc(-c4ccc(F)c(F)c4)cc3Cn3cnc4c(N)ncnc43)C2)c1	970
Nc1ncnc2c1ncn2Cc1cc(-c2cnc(F)c(Cl)c2)ncc1N1CCC[C@](N)(c2cccc(Cl)n2)C1	5490
COc1ccc(-c2cc(Cn3cnc4c(N)ncnc43)c(N3CCC[C@](N)(c4cccc(Cl)n4)C3)cn2)nc1Cl	3280
